meta.source: paper PMC5540273

- Test system: MST3
- Construct: gene STK24
- PARTICULARS: concentration: 1 μM, replicates: in singlicate; n = 1;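 note: KINOMEscan kinase panel screen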
Could you please report measured %Inh for the items listed next?
The response must be a number in % with no trailing unit.

%Inh measured on Fc1cccc(COc2ccc(Nc3ncnc4sc(-c5ccc[nH]5)cc34)cc2Cl)c1 [GW707818] = 8

Record Oc1ccc2ncnc(Nc3ccc(OCc4ccccc4)cc3)c2c1 [GI262866] . Reported %Inh: 0

The reported value for Cl.c1ccc(Cn2ncc3cc(Nc4ncnc5ccccc45)ccc32)cc1 [GW273749] in terms of %Inh is 0

Recorded %Inh (compound FC(F)(F)c1cc(Nc2nccc(-c3c(-c4ccc(Cl)cc4)nn4ncccc34)n2)ccc1Cl [GW829351] ): 0

---

- Test system: FAK
- Construct: gene PTK2
- PARTICULARS: concentration: 1 μM, replicates: in singlicate; n = 1
For each record, write down the corresponding %Inh.
Please reply with the bare figure in % and do not write the unit itself.

// field: %Inh; key: CCc1nc(-c2cccc(N(C)S(=O)(=O)c3ccccc3)c2)c(-c2ccnc(Nc3ccc(N4CCN(C(C)=O)CC4)nc3)n2)s1 [GSK1645895] ; value = 0

Lab note: measured %Inh of CC(=O)Nc1n[nH]c2ncc(-c3ccccc3)cc12 [SB-548492] was 0

Recorded result, Nc1n[nH]c2nnc(-c3ccccc3)cc12 [SB-517389] , %Inh: 0

%Inh reading for `N#Cc1ccc(Oc2ccc(Nc3ncnc4cc[nH]c34)cc2Cl)cc1` : 8

Recorded %Inh (compound `COC(=O)c1c(-c2ccccc2)c2cc(Cl)ccc2c(=O)n1Cc1ccc(S(C)(=O)=O)cc1` ): 4

Fc1ccc(Nc2nccc(-c3c(-c4ccc(Cl)cc4)nn4ncccc34)n2)cc1F [GW829058] yielded %Inh of 17

Looking up `Clc1cc(Nc2ncnc3cc[nH]c23)ccc1OCc1ccccn1` , I see its %Inh listed as 8

Data point: COc1cc2ncnc(Nc3ccc(OCc4ccccc4Br)c(Cl)c3)c2cc1OC.Cl [GI261590] ; %Inh = 0

The compound listed as Nc1nc(-c2ccccn2)c(-c2ccnc3ccccc23)s1 [GW548057] shows %Inh equal to 0

---

- Test system: ABL1-nonphosphorylated
- PARTICULARS: concentration: 1 μM, replicates: in singlicate; n = 1
I'd appreciate it if you could supply %Inh values for the items below.
Report as a plain number; the unit % is understood.

%Inh reported for this compound `Cl.Cn1ccc(-c2cccc(Nc3ccnc4cc(-c5nccs5)ccc34)c2)n1` : 0

`Fc1ccc(Nc2nccc(-c3c(-c4ccc(Cl)cc4)nn4ncccc34)n2)cc1F` yielded %Inh of 0

In plain terms, `Cl.Cl.c1ccc(-c2cc3ccncc3cc2OC2CCNCC2)cc1` has a documented %Inh of 0

# compound `Fc1cccc(COc2ccc(Nc3ncnc4cc[nH]c34)cc2Cl)c1` ; its %Inh = 19

For reference, reported %Inh for `COC(=O)c1cccc(NC(=O)NCCNc2ccnc(Nc3ccc(F)cc3)n2)c1` stands at 0

Value of %Inh reported for the compound COc1ccc(Nc2nccc(N3CCC(NC(=O)Nc4ccc5c(c4)OCO5)C3)n2)cc1 (centres unmarked) is 0

// recorded %Inh for `Cl.c1ccc(Cn2ncc3cc(Nc4ncnc5ccccc45)ccc32)cc1` : 38

Field %Inh (entry `O=C(NCCCN1CCCC1=O)c1cnc(NCc2cc(Cl)ccc2Cl)nc1NC1CCNCC1` ) reads 0

%Inh reported for this compound `COc1ccc(NC(=O)Nc2ccc(C)c(-c3ccc(C(=O)Nc4ccncc4)cc3)c2)cc1` : 0

The compound `N#Cc1ccc(Oc2ccc(Nc3ncnc4cc[nH]c34)cc2Cl)cc1` showed %Inh equal to 51

Quick note, %Inh for `COc1cc2ncnc(Nc3ccc(OCc4ccccc4Br)c(Cl)c3)c2cc1OC.Cl` landed at 0
